Below is a list of entries, each paired with its recorded fold change (FC) value.
Test system: Mus musculus
method_description: Inhibition of FAAH in C57Bl/6J mouse brain assessed as increase of arachidonic acid level at 30 mg/kg, ip after 1 hr relative to control
Type: functional
conditions: route intraperitoneal
Just the number, please.

- molecule: "O=C(O)c1cccc(-c2cnc(C(=O)C3Cc4ccc(Oc5ccccc5)cc4C3)o2)n1 (centres undefined)"
  test_result: 0.8
- molecule: "O=C(c1ncc(-c2ccccn2)o1)[C@H]1CCc2cc(Oc3ccccc3)ccc2C1"
  test_result: 0.8
- molecule: "O=C(c1ncc(-c2ccccn2)o1)C1Cc2ccc(Oc3ccccc3)cc2C1 (centres undefined)"
  test_result: 0.9

For the next question, use this molecule.
For O=C(O)c1cccc(-c2cnc(C(=O)[C@H]3CCc4cc(Oc5ccccc5)ccc4C3)o2)n1 the molecule record lists fold change (FC) as 0.7

---

test_target: Fatty-acid amide hydrolase 1 (Rattus norvegicus, UniProt P97612)
method_description: Inhibition of rat FAAH expressed in E. coli assessed as [14C]-labeled oleamide to oleic acid conversion
Threshold 70 nM: Ki strictly smaller gives fulfilled, otherwise not fulfilled.

- smiles_input: "O=C(c1ncco1)[C@H]1CCc2cc(Oc3ccccc3)ccc2C1"
  classification: "fulfilled"

# TODO verify Ki < 70 nM strictly for this molecule: COC(=O)c1cccc(-c2cnc(C(=O)[C@@H]3CCc4cc(Oc5ccccc5)ccc4C3)o2)n1 not fulfilled

# TODO verify Ki < 70 nM strictly for this molecule: O=C(O)c1cccc(-c2cnc(C(=O)[C@@H]3CCc4cc(Oc5ccccc5)ccc4C3)o2)n1 not fulfilled

# TODO verify Ki < 70 nM strictly for this molecule: N#Cc1cnc(C(=O)[C@H]2CCc3cc(OCc4ccccc4)ccc3C2)o1 fulfilled

# TODO verify Ki < 70 nM strictly for this molecule: COC(=O)c1cnc(C(=O)[C@H]2CCc3cc(-c4ccccc4)ccc3C2)o1 fulfilled

# TODO verify Ki < 70 nM strictly for this molecule: O=C(c1nnc(-c2ccccn2)o1)[C@H]1CCc2cc(Oc3ccccc3)ccc2C1 fulfilled

---

test_target: Fatty-acid amide hydrolase 1 (Rattus norvegicus, UniProt P97612)
Sequence (P97612 whole entry): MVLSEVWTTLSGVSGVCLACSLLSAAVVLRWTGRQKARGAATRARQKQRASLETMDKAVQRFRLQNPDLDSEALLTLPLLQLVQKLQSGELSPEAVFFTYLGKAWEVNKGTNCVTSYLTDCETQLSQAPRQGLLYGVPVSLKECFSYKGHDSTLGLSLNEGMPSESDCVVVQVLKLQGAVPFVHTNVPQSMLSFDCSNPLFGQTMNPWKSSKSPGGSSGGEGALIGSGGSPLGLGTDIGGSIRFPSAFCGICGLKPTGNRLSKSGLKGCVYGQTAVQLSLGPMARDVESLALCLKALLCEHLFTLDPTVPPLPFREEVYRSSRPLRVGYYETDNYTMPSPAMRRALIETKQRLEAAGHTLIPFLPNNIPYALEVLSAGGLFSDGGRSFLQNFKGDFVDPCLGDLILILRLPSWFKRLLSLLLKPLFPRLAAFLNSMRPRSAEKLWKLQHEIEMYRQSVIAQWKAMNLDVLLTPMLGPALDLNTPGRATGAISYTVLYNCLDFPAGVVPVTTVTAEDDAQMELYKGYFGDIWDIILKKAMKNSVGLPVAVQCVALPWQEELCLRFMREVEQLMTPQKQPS
method_description: Inhibition of rat recombinant FAAH expressed in Escherichia coli assessed as [14C]-labeled oleamide to oleic acid conversion
assay_metric: pKi
To interpret pKi, take it as minus log10 of a concentration measured in moles per litre.

- smiles_input: "O=C(c1ncc(-c2ccccn2)o1)[C@H]1CCc2cc(Oc3ccccc3)ccc2C1"
  test_result: 8.36

For the next question, use this compound.
For O=C(O)c1cccc(-c2cnc(C(=O)[C@H]3CCc4cc(Oc5ccccc5)ccc4C3)o2)n1 the compound record lists pKi as 7.60
